Biological target: Hexose transporter 1 (Plasmodium falciparum)
Assay: ST_JUDE_LEISH: Cytotoxicity at 2uM final concentration against transgenic Leishmania Mexicana promastigotes LmPfHT that are glucose transport deficient and complemented with the Plasmodium falciparum hexose transporter. Activity is measured by DNA content using SYBR green in vitro
Type: functional
recordedEndpoint: inhibition (%)
Give the number; % is assumed, so skip it.

// query inhibition value for entry O=S(=O)(Nc1cc2c(cc1OCCCN1CCCCC1)CCNCC2)c1ccc(-c2ccc(Cl)cc2)cc1
-0.13

// query inhibition value for entry COc1ccc2nccc([C@@H](O)CN3CCC(NC(=O)C(c4cc5ccccc5s4)N4CCN(c5ccccc5OC)CC4)CC3)c2c1 (some centres undefined)
1.89

// query inhibition value for entry O=C(NC1CCN(CCN2CCc3ccccc3CC2)CC1)c1ccc(-c2ccc(C(F)(F)F)cc2)cc1
9.69

// query inhibition value for entry Cc1nc2nc(N)nc(N)c2c(C)c1Cc1cccs1
1.16

// query inhibition value for entry Cc1ccc(O)c(-c2cc(C(=O)Nc3ccc(S(=O)(=O)N4CCCCCC4)cc3)[nH]n2)c1
-1.17

// query inhibition value for entry COc1cc2c(c(Cl)c1OC)CCN(Cc1ccccc1)CC2c1ccc(C(N)=O)cc1 (centres undefined)
1.77

// query inhibition value for entry CC1(CCc2ccccc2)N=C(N)N(Cc2ccccc2)C(=O)C1c1ccc(Cl)c(Cl)c1 (centres undefined)
2.08

// query inhibition value for entry Cc1nc(NC2=NCN(CCCN3CCOCC3)CN2)nc2c(C)cccc12
17.2

// query inhibition value for entry O=C(NC(c1ccccc1)c1ccccc1)C(c1cc2ccccc2o1)N1CCN(C(c2ccccc2)c2ccccc2)CC1 (centres undefined)
2.92

// query inhibition value for entry Cc1ccc(NC(=O)c2cc(S(=O)(=O)NC(C)(C)C)ccc2C)nc1
0.34

// query inhibition value for entry Cc1ccc(C)c(Cn2ccc3nc(N)nc(N)c32)c1
1.94

// query inhibition value for entry Cn1cnc(CCNC(=O)c2cccc(-c3ccc(-c4nc5cc(F)ccc5[nH]4)cc3)c2)c1
1.88

// query inhibition value for entry O=C(Nc1ccc(N2CCCN(Cc3cccc(F)c3)CC2)cc1)c1ccccc1
-0.73

// query inhibition value for entry CC1CCC(C[C@@H](C(=O)N[C@@H](CCC(=O)N2CCCCC2)C(=O)Nc2nccs2)[C@H](C(C)C)N(O)C=O)CC1 (some centres undefined)
4.16

// query inhibition value for entry COc1ccccc1-n1c(-c2ccc3ccccc3c2)csc1=NC(=O)c1ccccc1
-0.46

// query inhibition value for entry CC(C)NCc1ccc(-c2cccc(NC(=O)c3cccc(C#N)c3)c2)cc1
2.38

// query inhibition value for entry OC(CNCc1ccccc1OCc1ccccc1)c1cccc(I)c1 (centres undefined)
5.42

// query inhibition value for entry CCOc1c(CNCCCNc2cc(=O)c3ccccc3[nH]2)cc(I)cc1C(C)(C)C
1.18

// query inhibition value for entry Cc1ccc2sc(N3CCN(C(=O)c4ccc([N+](=O)[O-])o4)CC3)nc2c1C
44.3

// query inhibition value for entry CC(C)[C@H](NC(=O)c1ccc(O)c(-c2ccc(Cl)c(Cl)c2)c1)C(=O)NCCN1CCCCC1
1.9

// query inhibition value for entry O=C(/C=C/c1ccc(Cl)c(Cl)c1)NCCCCCN1CCC(NC(=O)Nc2cc(F)ccc2F)CC1
2.81

// query inhibition value for entry Cc1cccc(C(=O)N2CCN(Cc3cccc(NC(=O)c4ccco4)c3)CC2)c1
1.48

// query inhibition value for entry CC(Nc1ccc2c(c1)OCCO2)C(=O)Nc1cc(C(F)(F)F)ccc1N1CCOCC1 (centres undefined)
8.1

// query inhibition value for entry C[C@H](Nc1c(Nc2ccc3[nH]ccc3c2)c(=O)c1=O)C1CCCCC1
0.15

// query inhibition value for entry CCCOc1ccc(C(F)(F)F)cc1NC(=O)c1nc2nc(C)cc(C)n2n1
5.05

// query inhibition value for entry Nc1c(Cl)cc(C(O)CNCCCCCCOCCc2ccc(CO)s2)cc1Cl (centres undefined)
1.49

// query inhibition value for entry COc1cccc(N(CCCN2C(=O)c3cccc4cccc(c34)C2=O)C(=O)c2ccccc2C)c1
7.4

// query inhibition value for entry N#Cc1cccc(-c2nc(NCc3cccc(C(F)(F)F)c3)nn2-c2cccc(C(F)(F)F)c2)c1
-0.35

// query inhibition value for entry CCn1c2c(c(=N)c3ccccc31)CCC2
-2.72

// query inhibition value for entry COCCNCc1ccc(-c2ccc(CNc3ccc4ncccc4c3)cc2)cc1
4.18

// query inhibition value for entry O=S(=O)(NCCN1CCCC1)c1cccc(-c2ccccc2CNC2Cc3ccccc3C2)c1
16

// query inhibition value for entry CN1CCN(Cc2ccc(-c3ccc4c(Nc5ccc(Oc6ccccn6)cc5)ccnc4c3)o2)CC1
0.11

// query inhibition value for entry CO/C(=C\C=C\c1cc2cc(Cl)c(Cl)cc2[nH]1)C(=O)NCCCN1CCN(c2cccc(O)c2)CC1
11.7

// query inhibition value for entry CN1CCC(NCc2cccc(-c3ccc(S(=O)(=O)NCCc4ccccn4)c(F)c3)c2)CC1
0.03

// query inhibition value for entry CCN1CCC(NCc2ccc(-c3ccc(Cl)s3)cc2)CC1
-1.38

// query inhibition value for entry CN(C)CCCn1c(C(=O)OC(c2ccccc2)c2ccccc2)cc2cc(OCc3ccccc3)ccc21
0.08

// query inhibition value for entry Cc1[nH]c(C)c(-c2ccc(Nc3ccc(C(F)(F)F)cn3)cc2)c(=O)c1Br
5.96

// query inhibition value for entry Cc1ccc2c(=NN=CC=Cc3ccccc3)cc(C)[nH]c2c1
5.52

// query inhibition value for entry Cc1nnsc1C(=O)Nc1ccc(-c2ccc(-c3nc4cccc(C)c4[nH]3)s2)cc1
2.76
